- STUDY SYSTEM: p300 HAT domain (residues 1287-1666) (Homo sapiens (Human))
- Sequence (Q09472 1287-1666): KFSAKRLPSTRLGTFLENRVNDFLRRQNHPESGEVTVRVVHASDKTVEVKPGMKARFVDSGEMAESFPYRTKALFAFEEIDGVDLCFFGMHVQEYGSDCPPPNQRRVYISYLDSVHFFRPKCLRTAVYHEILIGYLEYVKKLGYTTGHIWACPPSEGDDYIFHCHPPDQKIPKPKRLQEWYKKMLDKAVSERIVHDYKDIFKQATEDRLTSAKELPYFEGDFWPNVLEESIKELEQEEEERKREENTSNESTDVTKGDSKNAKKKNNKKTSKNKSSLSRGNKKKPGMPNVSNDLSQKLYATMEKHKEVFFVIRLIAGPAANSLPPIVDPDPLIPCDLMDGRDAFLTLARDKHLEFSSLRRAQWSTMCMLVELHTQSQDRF
- ASSAY PROTOCOL: p300 HAT SPA assay (scintillation proximity assay, acetylation of biotinylated H3(1-21) peptide)
- Type: biochemical
- TEST PARAMETERS: p300 HAT domain; average of at least 2 replicate titrations; read-out: P300 HAT SPA IC50
pIC50: −log10 of the molar value.
MEASURE: pIC50

Example entries begin here.
MOLECULE	pIC50
Cc1ccc2c(C(=O)C(NCCc3ccc(F)cc3)c3ccccc3)c[nH]c2c1 (single isomer, unassigned) [48 Isomer 2]	5.48
O=C(c1c[nH]c2ccccc12)C(NCCc1ccc(Cl)nc1)c1ccccc1 (single isomer, unassigned) [52 Isomer 2]	5.55
O=C(c1c[nH]c2ccccc12)C(NCCc1ccc(Cl)cc1)c1ccccc1 (single isomer, unassigned) [5 Isomer 1]	5.06
O=C(O)CCc1ccc2c(C(=O)C(NCCc3ccc(F)cc3)c3ccccc3)c[nH]c2c1 (single isomer, unassigned) [159 Isomer 2]	5.23
CC(Cc1ccc(Cl)cc1)NC(C(=O)c1c[nH]c2cc(-c3cnn(C)c3)ccc12)c1ccccc1 (single isomer, unassigned) [92 Isomer 3]	6.79

a: O=C(c1c[nH]c2cc(-c3cccnc3)ccc12)C(NCCc1ccc(Cl)cc1)c1ccccc1 (single isomer, unassigned) [90 Isomer 2]
b: CN(C)C(=O)Cc1ccc(CCNC(C(=O)c2c[nH]c3ccccc23)c2ccccc2)cc1 (single isomer, unassigned) [137 Isomer 1]
c: COCCNC(=O)c1cccc2c(C(=O)C(NCCc3ccc(Cl)cc3Cl)c3ccccc3)c[nH]c12 (single isomer, unassigned) [150 Isomer 1]
Challenge: Put these in order: smallest pIC50 first, largest last. Could you list the labels in the order requested?
Response given: b, c, a
(b: 4.66, c: 5.10, a: 6.23)

a: COc1ccc2c(C(=O)C(NCCc3ccc(S(N)(=O)=O)cc3)c3ccccc3)c[nH]c2c1 (single isomer, unassigned) [51 Isomer 2]
b: CNC(=O)c1ccc(CCNC(C(=O)c2c[nH]c3ccccc23)c2ccccc2)cc1 (single isomer, unassigned) [134 Isomer 2]
Challenge: Higher pIC50 between a and b ? Label of pick, please.
Response given: a
